These measurements were taken from ChEMBL document CHEMBL1129593.

# study-system: Sodium-dependent dopamine transporter (Rattus norvegicus) (UniProt P23977)
# Sequence (P23977 whole entry): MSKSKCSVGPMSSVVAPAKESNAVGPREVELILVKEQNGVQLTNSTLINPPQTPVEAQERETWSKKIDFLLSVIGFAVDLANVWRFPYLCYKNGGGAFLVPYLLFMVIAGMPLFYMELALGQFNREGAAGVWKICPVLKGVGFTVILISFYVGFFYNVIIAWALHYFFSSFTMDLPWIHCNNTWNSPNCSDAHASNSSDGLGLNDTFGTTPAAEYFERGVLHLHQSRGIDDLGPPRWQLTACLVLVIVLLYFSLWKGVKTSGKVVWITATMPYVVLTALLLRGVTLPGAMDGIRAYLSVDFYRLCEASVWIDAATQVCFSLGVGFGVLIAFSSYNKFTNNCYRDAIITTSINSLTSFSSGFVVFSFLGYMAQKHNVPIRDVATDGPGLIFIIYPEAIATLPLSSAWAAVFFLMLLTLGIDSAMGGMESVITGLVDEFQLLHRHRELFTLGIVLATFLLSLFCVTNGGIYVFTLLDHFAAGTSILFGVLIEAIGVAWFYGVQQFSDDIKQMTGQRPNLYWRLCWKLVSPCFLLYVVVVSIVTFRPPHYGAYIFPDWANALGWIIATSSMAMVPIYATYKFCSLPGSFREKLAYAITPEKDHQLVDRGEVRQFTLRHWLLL
# experiment: The ratio of uptake/binding at Dopamine transporter
# Type: functional
Think of 2 as a floor: if Uptake/Binding ratio stands on it or above, it is Fulfilled; beneath it, Not fulfilled.

OC1(c2ccc(Cl)cc2)c2ccccc2C2=NCCCCN21 (configuration not stated): Fulfilled
CC1(C)CN=C2c3ccccc3C(O)(c3ccc(Cl)cc3)N2C1 (configuration not stated): Not fulfilled

Problem: Decide: Uptake/Binding ratio of OC1(c2ccc(F)cc2)c2cc(Cl)ccc2C2=NCCN21 (configuration not stated) >= 2?
Result: Not fulfilled

Problem: Please tell me: is the molecule OC1(c2ccccc2)c2ccccc2C2=NCCCN21 (configuration not stated) at or over 2 in terms of Uptake/Binding ratio?
Result: Fulfilled

Problem: Confirm if Uptake/Binding ratio reported for the molecule OC1(c2cccc(F)c2)c2ccccc2C2=NCCCN21 (configuration not stated) is 2 or above.
Result: Not fulfilled

Problem: I'd appreciate it if you could say whether OC1(c2ccccc2F)c2ccccc2C2=NCCCN21 (configuration not stated) has Uptake/Binding ratio at least equal to 2.
Result: Fulfilled

Problem: Say whether OC1(c2cccc(Cl)c2)c2ccccc2C2=NCCCN21 (configuration not stated) shows Uptake/Binding ratio of 2 or more.
Result: Not fulfilled
